Measured values drawn from ChEMBL document CHEMBL3425444 for this set.

test system: Human immunodeficiency virus 1; assay: Antiviral activity against wild type HIV1 3B infected in human MT4 cells assessed as protection from virus-induced cytopathicity after 4 days by MTT assay; type: functional, organism-based; settings: Human immunodeficiency virus 1, 3B, MT4, 96 h
Here the recorded log10(EC50) is given for each entry.
parameter measured: log10(EC50) (log10 of the value in nM)

compound | assayed system | parameter measured | measured number
Cc1cc(C#N)cc(C)c1Oc1ccnc(NC2CCN(CC(=O)Nc3ccc(Br)cc3)CC2)n1 | Human immunodeficiency virus 1 | log10(EC50) | 0.79
Cc1cc(C#N)cc(C)c1Oc1ccnc(NC2CCN(CC(=O)Nc3ccc(F)cc3)CC2)n1 | Human immunodeficiency virus 1 | log10(EC50) | 0.62
Cc1cc(C)cc(NC(=O)CN2CCC(Nc3nccc(Oc4c(C)cc(C#N)cc4C)n3)CC2)c1 | Human immunodeficiency virus 1 | log10(EC50) | 1.17
Cc1ccc(NC(=O)CN2CCC(Nc3nccc(Oc4c(C)cc(C#N)cc4C)n3)CC2)cc1 | Human immunodeficiency virus 1 | log10(EC50) | 0.74
Cc1cc(C#N)cc(C)c1Oc1ccnc(NC2CCN(CC(=O)Nc3ccc([N+](=O)[O-])cc3)CC2)n1 | Human immunodeficiency virus 1 | log10(EC50) | 0.76
Cc1cc(C#N)cc(C)c1Oc1ccnc(NC2CCN(CC(=O)Nc3ccc(Cl)cc3Cl)CC2)n1 | Human immunodeficiency virus 1 | log10(EC50) | 2.07
Cc1cc(C#N)cc(C)c1Oc1ccnc(NC2CCN(CC(=O)Nc3ccccc3Cl)CC2)n1 | Human immunodeficiency virus 1 | log10(EC50) | 1.54
O=C1Nc2ccc(Cl)cc2[C@@](C#CC2CC2)(C(F)(F)F)O1 [EFAVIRENZ] | Human immunodeficiency virus 1 | log10(EC50) | 0.80

###

experiment: Retention time of the compound by HPLC analysis; type: physicochemical
Here the recorded Retention_time is given for each entry.
parameter measured: Retention_time (min)

smi | measured number
Cc1cc(C#N)cc(C)c1Oc1ccnc(NC2CCN(CC(=O)Nc3cccc([N+](=O)[O-])c3)CC2)n1 | 11.49
Cc1cc(C#N)cc(C)c1Oc1ccnc(NC2CCN(CC(=O)Nc3ccc(C#N)cc3F)CC2)n1 | 11.27
Cc1ccccc1NC(=O)CN1CCC(Nc2nccc(Oc3c(C)cc(C#N)cc3C)n2)CC1 | 11.33
Cc1cc(S(N)(=O)=O)ccc1NC(=O)CN1CCC(Nc2nccc(Oc3c(C)cc(C#N)cc3C)n2)CC1 | 9.61

###

system: Human immunodeficiency virus 1; test: Antiviral activity against wild type HIV1 3B infected in human MT4 cells assessed as protection from virus-induced cytopathicity after 4 days by MTT assay; type: functional, organism-based; details: Human immunodeficiency virus 1, 3B, MT4, 96 h
pEC50: −log10 of the molar value.
Please use Met whenever pEC50 is not below 8, and Not met whenever it is.

smi | cat
Cc1cc(C#N)cc(C)c1Oc1ccnc(NC2CCN(CC(=O)Nc3ccc(Cl)c(Cl)c3)CC2)n1 | Not met
Cc1ccccc1NC(=O)CN1CCC(Nc2nccc(Oc3c(C)cc(C#N)cc3C)n2)CC1 | Not met
Cc1cc(S(N)(=O)=O)ccc1NC(=O)CN1CCC(Nc2nccc(Oc3c(C)cc(C#N)cc3C)n2)CC1 | Met
Cc1cc(C#N)cc(C)c1Oc1ccnc(NC2CCN(CC(=O)Nc3ccc(C#N)cc3)CC2)n1 | Met
Cc1cc(C#N)cc(C)c1Oc1ccnc(NC2CCN(CC(=O)Nc3cc(Cl)cc(Cl)c3)CC2)n1 | Not met
